test: chemical genetic growth profiling, strain panel (AID 1159580);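 also: tested at 20 µM; growth read once vehicle control cultures reached saturation at 30 °C; 1 = growth at the plate median or of vehicle wells; lower values mean less growth of the strain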
recorded-conditions: S. cerevisiae deletion strains, growth OD, locus YHR013C, strain ard1, stronger effect = lower value
Screen size: about 5,500 compounds; about 2,000 (36%) were called active. Not shown: some 18% with an inconclusive outcome. This is one part of the list.
assay-endpoint: normalized growth

The cases that follow already have their normalized growth on record.
- compound: "COc1ccc2cc1Oc1ccc(cc1)C[C@H]1c3c(cc4c(c3Oc3cc5c(cc3OC)CCN(C)[C@@H]5C2)OCO4)CCN1C"
  normalized growth: "0.964 (inactive)"
- compound: "CC(C)[N+](C)(CCOC(=O)C1c2ccccc2Oc2ccccc21)C(C)C"
  normalized growth: "1.04 (inactive)"
- compound: "CC[C@@H](CO)NCCN[C@@H](CC)CO"
  normalized growth: "1.04 (inactive)"

Each compound below has a recorded value; state its normalized growth.
1. CCC1(c2ccccc2)C(=O)NCNC1=O
2. CCC1(c2ccc(N)cc2)CCC(=O)NC1=O (configuration not stated)
3. CCC(C(=O)O)c1ccccc1 (configuration not stated)
4. COc1cccc([C@]2(O)CCCC[C@H]2CN(C)C)c1
5. CCC1(C)CC(=O)NC1=O (configuration not stated)
6. CCCCOc1ccc(C(=O)CCN2CCCCC2)cc1
7. Cc1cccc(Nc2cc(Cl)nc(SCC(=O)O)n2)c1C
8. NCC1CCCCC1CC(=O)O (configuration not stated)

Ans:
1.01 (inactive)
0.956 (inactive)
0.963 (inactive)
0.937 (inactive)
0.94 (inactive)
0.707 (active)
0.977 (inactive)
1.02 (inactive)

For COc1ccc2cc1Oc1ccc(cc1)C[C@H]1c3cc(c(OC)cc3CCN1C)Oc1c(OC)c(OC)cc3c1[C@H](C2)N(C)CC3 the compound record lists normalized growth as 0.902 (inactive)
